The origin of these recorded values is paper PMC10786891.

- test system: T1, EsCas13d, nuclease-dead (Eubacterium siraeum, UniProt B0MS50, R295A;H300A;R849A;H854A)
- T1 sequence: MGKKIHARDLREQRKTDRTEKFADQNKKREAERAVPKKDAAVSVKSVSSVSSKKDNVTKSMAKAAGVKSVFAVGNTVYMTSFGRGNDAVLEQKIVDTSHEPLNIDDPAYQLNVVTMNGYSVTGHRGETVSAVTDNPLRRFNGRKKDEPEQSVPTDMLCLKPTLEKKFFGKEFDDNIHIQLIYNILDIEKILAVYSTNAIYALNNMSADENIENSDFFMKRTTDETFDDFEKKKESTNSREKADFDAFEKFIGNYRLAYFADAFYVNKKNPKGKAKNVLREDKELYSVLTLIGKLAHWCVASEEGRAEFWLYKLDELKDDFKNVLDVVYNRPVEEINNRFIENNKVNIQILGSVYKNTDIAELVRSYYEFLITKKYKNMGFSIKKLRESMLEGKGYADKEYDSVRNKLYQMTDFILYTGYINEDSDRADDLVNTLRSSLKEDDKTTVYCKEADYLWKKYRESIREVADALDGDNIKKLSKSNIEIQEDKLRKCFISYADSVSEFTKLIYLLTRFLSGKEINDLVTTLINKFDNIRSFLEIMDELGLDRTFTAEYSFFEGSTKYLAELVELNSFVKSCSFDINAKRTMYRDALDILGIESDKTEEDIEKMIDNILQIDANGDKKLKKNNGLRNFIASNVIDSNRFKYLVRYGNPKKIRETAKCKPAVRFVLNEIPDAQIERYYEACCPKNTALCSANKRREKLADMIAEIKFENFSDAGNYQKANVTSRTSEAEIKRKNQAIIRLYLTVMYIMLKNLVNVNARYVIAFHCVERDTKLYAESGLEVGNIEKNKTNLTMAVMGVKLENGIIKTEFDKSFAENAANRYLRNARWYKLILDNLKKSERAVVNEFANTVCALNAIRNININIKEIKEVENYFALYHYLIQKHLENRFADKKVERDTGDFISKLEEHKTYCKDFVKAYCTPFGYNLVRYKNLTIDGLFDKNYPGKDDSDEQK
- assay protocol: crRNA (strand 1, pre-loaded); Mg2+; 40 mM Tris-HCl pH 7.5, 150 mM NaCl, 6 mM MgCl2, 1 mM DTT, 0.1% Tween-20, 0.2 mg/ml BSA; 25 C; 10 min per concentration, then washed
- applied conditions: tags: His6-TwinStrep-SUMO cleaved; N-terminal SNAP kept (SNAP-Surface 488); label: 3' end held by stalled T7 RNA polymerase
// assign fulfilled if Kd falls strictly below 20 nM, else not fulfilled (ties count as not fulfilled)

- binder: "target 1 MT 5'PFS GUU 3'PFS CGU (mixed) RNA 1: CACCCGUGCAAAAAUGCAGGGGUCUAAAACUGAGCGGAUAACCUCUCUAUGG RNA 2: GGGAAUGGAUCCACAUCUACGAAUUCGUUCCAUAGAGAGGUUAUCCGCUCACGUAGAUCGGAAGAGCACACGU"
  class: "fulfilled"
- binder: "target 1 C2A,U19G (mixed) RNA 1: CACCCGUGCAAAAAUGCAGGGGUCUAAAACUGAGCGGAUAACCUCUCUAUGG RNA 2: GGGAAUGGAUCCACAUCUACGAAUUCGUACCAGAGAGAGGUUAUCCGCUAACCGAGAUCGGAAGAGCACACGU"
  class: "not fulfilled"

Q) For this binder, is Kd lower than 20 nM? target 2 MT 5'PFS UUU 3'PFS UAU (mixed) RNA 1: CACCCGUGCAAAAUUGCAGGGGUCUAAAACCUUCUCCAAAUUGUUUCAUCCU RNA 2: GGGAAUGGAUCCACAUCUACGAAUUCUUUAGGAUGAAACAAUUUGGAGAAGUAUAGAUCGGAAGAGCACACGU
A) fulfilled

Q) Quick check: Kd of target 1 insA 3' of 22,insC 3' of 18 (mixed) RNA 1: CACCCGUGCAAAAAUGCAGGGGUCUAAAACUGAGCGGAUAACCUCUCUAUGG RNA 2: GGGAAUGGAUCCACAUCUACGAAUUCGUACACAUACGAGAGGUUAUCCGCUCACCGAGAUCGGAAGAGCACACGU under 20 nM?
A) not fulfilled

Q) Kd strictly < 20 nM for this binder? target 1 insA 3' of 8,insG 3' of 1 (mixed) RNA 1: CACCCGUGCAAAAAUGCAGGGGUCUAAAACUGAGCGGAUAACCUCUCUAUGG RNA 2: GGGAAUGGAUCCACAUCUACGAAUUCGUACCAUAGAGAGGUUAUACCGCUCAGCCGAGAUCGGAAGAGCACACGU
A) fulfilled
